# Tested on: KM-20L2
# Measurement Protocol: NCI tumour cell line growth inhibition, 48 h
The source made the active and inactive calls. Cut-off read from the data, not from the text of the source: active = GI50 up to about 1.1 µM and inactive = higher.
Property Name: GI50

Please fill in: GI50 reported for CS(=O)(=O)NNS(=O)(=O)c1cccc([N+](=O)[O-])c1 = > 100 µM (inactive)

The recorded GI50 for entry COc1ccc(C2=Nc3ccccc3SC(C)C2)cc1OC (stereo not drawn) equals 18.8 µM (inactive)

The measured GI50 associated with CN(C)/C(=N\C#N)N(Cc1ccccc1)Cc1ccccc1 reads > 100 µM (inactive)

###

# System: RPMI-8226
# Measurement Protocol: NCI tumour cell line growth inhibition, 48 h
The source made the active and inactive calls. Cut-off read from the data, not from the text of the source: active = GI50 up to about 1.1 µM and inactive = higher. Bridge positions count the residues as written; N and C are the ends. Square brackets hold non-standard residues; d marks the D form. Peptide text beside a SMILES is read from it. * marks the point of attachment. Cbz = O=C(OCc1ccccc1)*; Dab = NCC[CH](N)C(=O)O; Bn = c1ccc(C*)cc1
Your response should consist of one outcome taken from active, inactive

Hi team, can someone confirm the assay call for COc1cccc(-c2nccc3c(OCc4ccccc4)c(OC)c(OC)cc23)c1 ?
inactive

For OC1CN2CCS[C@H]2C(O)C1O (stereo partly specified) , what call appears in the results of this test?
inactive

Assay result, entry O=c1c(/C=C/c2c(O)ccc3ccccc23)nnc2sc(-c3cccc(Br)c3)nn12 — outcome?
inactive

Short answer needed: outcome of this test for CC[N+](CC)(CC)/C(=N\S(=O)(=O)c1ccc(Cl)cc1)[N-]S(=O)(=O)c1cc(C)c(Cl)cc1S ?
inactive

Fill in: this test's call for Cc1ccc(-c2cc(-c3cc(-c4ccc(C)cc4C)[nH]n3)[nH]n2)c(C)c1 is ___
inactive

How did this test come out for O/N=C1/COC(C(F)(F)F)(C(F)(F)F)C1 ?
inactive

Record lookup: outcome of this test for CCCCCCCCCCCCCCCCCCOP(=O)([O-])OC1CC[N+](C)(C)CC1 [PERIFOSINE] ?
inactive

Dear colleague, could you share the recorded outcome for CC(=O)C1(c2ccccc2)CCCN(C)CC1 (stereo unspecified) when you have a moment?
inactive

How did this test come out for CC(C)CNC(=O)Cn1c2c(c3ccccc31)CCCC2 ?
inactive

Record lookup: outcome of this test for N#CCCN(CCNc1ccccc1)C(=O)Nc1ccc(NC(=O)N(CCC#N)CCNc2ccccc2)cc1 ?
inactive

What classification did CN(Cc1cnc2nc(N)nc(N)c2n1)c1ccc(C(=O)NC(CCC(=O)NCCC(P(=O)(O)O)P(=O)(O)O)C(=O)O)cc1 (stereo unspecified) end up with in this test?
inactive

What is the recorded call for this compound in the test? CCOP(=O)(OCC)/C(C#N)=C/c1ccccn1
inactive

Call for entry CC1(C)[C@@H](Cn2nnc3c(N)ncnc32)CC[C@@]1(C)CO :
inactive

Dear all, I need the recorded test outcome for O=C(Nc1ccccc1)N(C1=NCC(CI)S1)c1ccc(F)cc1F (stereo unspecified) , thank you.
inactive

Status in this test for CCOc1ccc2nc(-c3ccc(O)cc3)sc2c1 ?
active

Could you kindly confirm the outcome this assay logged for CCC1(c2ccccc2)Sc2ccccc2-n2cccc2C1=O (stereo unspecified) ?
inactive

Any idea what this test logged for CCCCNC(=O)Nc1c(C(N)=O)c2n(c1C(=O)OCC)CCCCC2 ?
inactive

Which outcome was assigned to CC(C)CC1NC(=O)C(Cc2ccccc2)NC(=O)C(Cc2ccccc2)NC(=O)C(NC(=O)C(Cc2ccc(OCc3ccccc3)cc2)NC(=O)OCc2ccccc2)CCNC1=O (stereo unspecified) (Cbz-Y(Bn)[Dab]FFL; lactam 2-C; configuration not given here) in this test?
inactive

I'd appreciate the recorded outcome for Cn1c(O)c(C2=Nc3ccccc3C2=O)c2ccccc21 from this test.
inactive

Would you mind telling me which call this test gave CCOC(=O)c1c(-c2ccc(Br)cc2)ccn1C ?
inactive

What did the test return for CCOC(=O)C1=COC(C)(c2ccccc2)CC1=O (stereo unspecified) ?
inactive

# fetch the recorded call for O=C1Nc2ccccc2/C1=N/NC(=S)N1CCCC1 here
active

Which outcome did this test record for the compound COP(=O)(OC)/C(=C\C1=CN(C(c2ccccc2)(c2ccccc2)c2ccccc2)CN1)NC=O ?
inactive

Give the logged outcome of this assay for the following compound: COc1ccc(/N=N/N2CCCC2)cc1
inactive

Name the outcome recorded for C=C1C(=O)OC2/C=C(/C)C3(O)OC(C)(CC(OC(=O)C(C)C)C12)CC3OC(C)=O (stereo unspecified) in the assay.
inactive

Identify the outcome logged in this assay for the compound shown: CC(C)C.C[N+](C)(C)C.OC(c1ccccc1)(C(F)(F)F)C(F)(F)F.OC(c1ccccc1)(C(F)(F)F)C(F)(F)F.[SiH3-]
inactive

Give the logged outcome of this assay for the following compound: C=C1[C@@](C)([C@@H]2CCCS2)[C@H]2C(C)=C[C@]1(C)n1c(=O)n(-c3ccccc3)c(=O)n12
inactive

Per the records of this test, what outcome belongs to COc1ccc(N2C=Nn3c(nc4sc(C)c(C)c4c3=O)C2)cc1 ?
inactive

Per the records of this test, what outcome belongs to O=c1oc2c/c(=C\c3ccc([N+](=O)[O-])cc3)c(=O)c3cccc1c3-2 ?
inactive

Identify the outcome logged in this assay for the compound shown: COc1ccccc1C(=O)Nc1ccc(Cl)c(C(=O)OC(C)C)c1
inactive

Please let me know the test result on file for C/C(=N\N(C)C)C(CN1CCCCC1)C(c1ccccc1)c1c(O)c2ccccc2oc1=O (stereo unspecified) .
inactive

###

# Test system: 786-0
# Measurement Protocol: NCI tumour cell line growth inhibition, 48 h
The source made the active and inactive calls. No stated cut-off is given here; in the data, active = GI50 up to about 1.1 µM and inactive = higher.
Hi there, use one of these labels in your reply, thanks! Y = active, N = inactive

Recorded test outcome, item COc1cc2ccc3c4c(OC)cc(OC)c(OC)c4c([O-])[n+](C)c3c2cc1OC
N

Test call, this compound: COc1cc(C(C)c2cc3c(cc2OCCCCOc2cc4c(cc2C(C)c2cc(OC)c(OC)c(OC)c2)OCO4)OCO3)cc(OC)c1OC (centres undefined)
N

Assay outcome for COc1cccc(-c2cc(O)c3cccnc3n2)c1 : what was it?
Y

Hi, do you know how C[N+](C)(C)CC1CCc2ccccc2C1=O (centres undefined) came out in this test?
N

###

Field: GI50. Provide a value for each of the compounds that follow.
# Tested on: UACC-62
# Measurement Protocol: NCI tumour cell line growth inhibition, 48 h
Calls of active or inactive are those of the source. Rule as the data show it: active = GI50 up to about 1.1 µM and inactive = higher.

GI50 measured on Cn1cc(-c2ccc3c4ccccc4n(C)c3c2)c2ccccc21 = > 100 µM (inactive)

// GI50 lookup, compound = COc1cc2ccc3c4c(OC)cc(OC)c(OC)c4c([O-])[n+](C)c3c2cc1OC , result: 25.1 µM (inactive)

Sure, the documented GI50 for O=C1CCCn2c(nc3ccccc32)N1 is > 100 µM (inactive)

The compound listed as O=C(c1ccco1)C1CC(c2ccc3ccccc3c2O)=NN1 (configuration not stated) shows GI50 equal to > 100 µM (inactive)

Summary for this compound, C[N+](C)(C)CC1CCc2ccccc2C1=O (configuration not stated) : GI50 is 5.42 µM (inactive)

// GI50 value for COc1cc2c(c(O)c1OC)-c1c(cc(OC)c(OC)c1OC)CC(C)C(C)C2 (configuration not stated) : 43.1 µM (inactive)

# GI50 (compound: C/C(CC(=O)Nc1ccc(C)c(C)c1)=N\N(c1ccccc1)c1ccccc1 ) is 21.6 µM (inactive)

###

# System: SNB-19
# Measurement Protocol: NCI tumour cell line growth inhibition, 48 h
The source made the active and inactive calls. Cut-off read from the data, not from the text of the source: active = GI50 up to about 1.1 µM and inactive = higher.
Kindly supply the reported GI50 values for the records listed here.

Noted for Cc1c(-c2nc3ccccc3[nH]2)c(=O)n(-c2ccccc2)n1C : its GI50 reads > 100 µM (inactive)

// GI50 value for C1=CC(=NN=P(c2ccccc2)(c2ccccc2)c2ccccc2)C=C1 : > 100 µM (inactive)

GI50 in this record for COc1ccc(C)cc1C1CCC(=O)O1 (stereo not drawn) : > 100 µM (inactive)

Short answer for COc1cc(/C=N/N=C(\N)NO)cc(OC)c1OC : GI50 was > 100 µM (inactive)

Value of GI50 reported for the compound COCOc1c(C(O[Si](C)(C)C(C)(C)C)c2cnc(Sc3ccccc3)n2C)ccc(OC)c1OC (stereo not drawn) is 2.14 µM (inactive)

Lab book: GI50 of CCCCCCCCCCCC(=O)OCC1OC(n2cc(F)c(=O)[nH]c2=O)C(N)C(O)C1O (stereo not drawn) noted as 57.9 µM (inactive)

What the record says about N=C1N(c2ccccc2)C(=S)/C(=N/c2ccccc2)N1c1ccccc1 : GI50 is 16.6 µM (inactive)

// C=CCCCC1CCCNC1=S (stereo not drawn) : GI50 value = > 100 µM (inactive)

###

# System: A498
# Measurement Protocol: NCI tumour cell line growth inhibition, 48 h
Activity calls are given as the source filed them. Rule as the data show it: active = GI50 up to about 1.1 µM and inactive = higher.
Property Name: GI50

Record Cc1occc1/C(S)=N\c1ccc(Cl)c(COC(C)(C)C)c1 . Reported GI50: 17.8 µM (inactive)

So for Cn1c(O)c(C2=Nc3ccccc3C2=O)c2ccccc21 , the logged GI50 turned out to be > 100 µM (inactive)

// field: GI50; key: O=c1c(/C=C/c2c(O)ccc3ccccc23)nnc2sc(-c3cccc(Br)c3)nn12 ; value = 26.7 µM (inactive)

The compound identified as O=C(/C=C/c1ccccc1O)c1cccs1 registered its GI50 at 11.9 µM (inactive)
